From: paper PMC7774954

Test system: 266 human PDZ domains (PDZome)
protocol.text: Holdup assay (chromatographic retention, PDZome-binding profile, BI)
Design: key: binding intensity: 0.00 = no binding, 1.00 = maximal binding
reported.conditions: PDZ domain MPP7-1
*1 amine or outer side, *2 acyl side, *3 side chain or, on linkers, in order; H or OH if unused. Where a SMILES comes first, the peptide text is derived from it. The star is where a group is joined. X1 = O=C(CCCC[C@@H]1SC[C@@H]2NC(=O)N[C@@H]21)NCCCOCCOCCOCCCN*; Suc = O=C(CCC(=O)[*:2])[*:1]
readout: BI

compound: CC[C@H](C)[C@H](NC(=O)[C@H](CCC(N)=O)NC(=O)[C@@H](NC(=O)[C@H](Cc1c[nH]cn1)NC(=O)[C@H](CCC(N)=O)NC(=O)[C@H](CC(=O)O)NC(=O)[C@H](CCC(=O)O)NC(=O)[C@H](CC(=O)O)NC(=O)CCC(=O)NCCCOCCOCCOCCCNC(=O)CCCC[C@@H]1SC[C@@H]2NC(=O)N[C@@H]21)[C@@H](C)O)C(=O)N[C@H](C(=O)N[C@@H](CCCNC(=N)N)C(=O)N[C@H](C(=O)O)C(C)C)[C@@H](C)O [PTEN_KR] ({X1-Suc}-DEDQHTQITRV-OH)
readout: BI
observed.value: -0.023

compound: CC[C@H](C)[C@H](NC(=O)[C@H](CCC(N)=O)NC(=O)[C@@H](NC(=O)[C@H](Cc1c[nH]cn1)NC(=O)[C@H](CCC(N)=O)NC(=O)[C@H](CC(=O)O)NC(=O)[C@H](CCC(=O)O)NC(=O)[C@H](CC(=O)O)NC(=O)CCC(=O)NCCCOCCOCCOCCCNC(=O)CCCC[C@@H]1SC[C@@H]2NC(=O)N[C@@H]21)[C@@H](C)O)C(=O)N[C@H](C(=O)N[C@@H](CCCCN)C(=O)N[C@H](C(=O)O)C(C)C)[C@@H](C)O [PTEN_11]
readout: BI
observed.value: 0.034

compound: CC[C@H](C)[C@H](NC(=O)[C@H](CCC(N)=O)NC(=O)[C@@H](NC(=O)[C@H](Cc1c[nH]cn1)NC(=O)[C@H](CCC(N)=O)NC(=O)[C@H](CC(=O)O)NC(=O)[C@H](CCC(=O)O)NC(=O)[C@H](CC(=O)O)NC(=O)CCC(=O)NCCCOCCOCCOCCCNC(=O)CCCC[C@@H]1SC[C@@H]2NC(=O)N[C@@H]21)[C@@H](C)O)C(=O)N[C@H](C(=O)N[C@@H](CCCCNC(C)=O)C(=O)N[C@H](C(=O)O)C(C)C)[C@@H](C)O [PTEN_Ac]
readout: BI
observed.value: -0.045

compound: CC[C@H](C)[C@H](NC(=O)[C@H](CCC(N)=O)NC(=O)[C@@H](NC(=O)[C@H](Cc1c[nH]cn1)NC(=O)[C@H](CCC(N)=O)NC(=O)[C@H](CC(=O)O)NC(=O)[C@H](CCC(=O)O)NC(=O)[C@H](CC(=O)O)NC(=O)[C@H](Cc1ccccc1)NC(=O)[C@@H]1CCCN1C(=O)CCC(=O)NCCCOCCOCCOCCCNC(=O)CCCC[C@@H]1SC[C@@H]2NC(=O)N[C@@H]21)[C@@H](C)O)C(=O)N[C@H](C(=O)N[C@@H](CCCCN)C(=O)N[C@H](C(=O)O)C(C)C)[C@@H](C)O [PTEN_13] ({X1-Suc}-PFDEDQHTQITKV-OH)
readout: BI
observed.value: -0.02
